System: PANC1
Experiment: SRB colorimetric cell growth inhibition assay, PANC1
Settings: PANC1 cells; total growth inhibition; SRB, 48 hours exposure
Starred links: 1 amine or outer side, 2 acyl side, 3 side chain; linkers in the order of their positions; H or OH if unused. Positions of bridges follow the written chain, without caps; N, C: chain ends. Non-standard residues stand in square brackets, D forms with d. Residues, ends and D or L forms follow the SMILES beside them. Hexanoyl(3S-OH,4R-NH2,5-Me) = CC(C)[C@@H](N[*:1])[C@@H](O)CC(=O)[*:2]; NMeY = CN[C@@H](Cc1ccc(O)cc1)C(=O)O; dNMeL = CN[C@H](CC(C)C)C(=O)O; Hiv = CC(C)[C@H](O)C(=O)O; Lac = C[C@H](O)C(=O)O
property: TGI

// query GET /values?readout=TGI&system=PANC1&item= COc1ccc(C[C@H]2C(=O)OC[C@H](NC(=O)[C@@H](CC(C)C)N(C)C(=O)[C@@H]3CCCN3C(=O)[C@H](C)O)C(=O)N[C@H](C(C)C)[C@@H](O)CC(=O)O[C@@H](C(C)C)C(=O)N[C@@H](CC(C)C)C(=O)N3CCC[C@H]3C(=O)N2C)cc1 [Compound 62, [N-Ser^6]-Tamandarin B] (H-[Lac]P[dNMeL]S[Hexanoyl(3S-OH,4R-NH2,5-Me)][Hiv]LP[NMeY](Me); ester 4-C)
// result 8.82E−07 Molar

---

Assignment: determine reported CC50 for the given molecules.
Tested on: LOVO
Assay: SRB colorimetric cell growth inhibition assay, LOVO
Settings: read-out: LC50; LOVO cells; cell killing; SRB, 48 hours exposure
Starred links: 1 amine or outer side, 2 acyl side, 3 side chain; linkers in the order of their positions; H or OH if unused. Positions of bridges follow the written chain, without caps; N, C: chain ends. Non-standard residues stand in square brackets, D forms with d. Residues, ends and D or L forms follow the SMILES beside them. Hexanoyl(3S-OH,4R-NH2,5-Me) = CC(C)[C@@H](N[*:1])[C@@H](O)CC(=O)[*:2]; NMeY = CN[C@@H](Cc1ccc(O)cc1)C(=O)O; NMeF = CN[C@@H](Cc1ccccc1)C(=O)O; dNMeL = CN[C@H](CC(C)C)C(=O)O; Hiv = CC(C)[C@H](O)C(=O)O; Lac = C[C@H](O)C(=O)O
A number alone suffices; assume µM.

// query Quick one: CC50 for CC(C)C[C@@H]1NC(=O)[C@H](C(C)C)OC(=O)C[C@H](O)[C@@H](C(C)C)NC(=O)[C@@H](NC(=O)[C@@H](CC(C)C)N(C)C(=O)[C@@H]2CCCN2C(=O)[C@H](C)O)[C@@H](C)OC(=O)[C@H](Cc2ccccc2)N(C)C(=O)[C@@H]2CCCN2C1=O [Phe^5 tamandarin B, [N-MePhe^5]-Tamandarin B] (H-[Lac]P[dNMeL]T[Hexanoyl(3S-OH,4R-NH2,5-Me)][Hiv]LP[NMeF]; ester 4-C) ?
// result 5.22

// query Quick one: CC50 for COc1ccc(C[C@H]2C(=O)O[C@H](C)[C@H](NC(=O)[C@@H](CC(C)C)N(C)C(=O)[C@@H]3CCCN3C(=O)[C@H](C)O)C(=O)N[C@H](C(C)C)[C@@H](O)CC(=O)O[C@@H](C(C)C)C(=O)N[C@@H](CC(C)C)C(=O)N3CCC[C@H]3C(=O)N2C)cc1 [tamandarin B, Tamandarin B, reference compound] (H-[Lac]P[dNMeL]T[Hexanoyl(3S-OH,4R-NH2,5-Me)][Hiv]LP[NMeY](Me); ester 4-C) ?
// result 9.59

---

Assignment: determine reported CC50 for the given molecules.
Tested on: K562
Assay: SRB colorimetric cell growth inhibition assay, K562
Conditions: read-out: LC50; K562 cells; cell killing; SRB, 48 hours exposure
Starred links: 1 amine or outer side, 2 acyl side, 3 side chain; linkers in the order of their positions; H or OH if unused. Positions of bridges follow the written chain, without caps; N, C: chain ends. Non-standard residues stand in square brackets, D forms with d. Residues, ends and D or L forms follow the SMILES beside them. Hexanoyl(3S-OH,4R-NH2,5-Me) = CC(C)[C@@H](N[*:1])[C@@H](O)CC(=O)[*:2]; NMeY = CN[C@@H](Cc1ccc(O)cc1)C(=O)O; NMeF = CN[C@@H](Cc1ccccc1)C(=O)O; dNMeL = CN[C@H](CC(C)C)C(=O)O; Hiv = CC(C)[C@H](O)C(=O)O; Lac = C[C@H](O)C(=O)O
A number alone suffices; assume µM.

// query Quick one: CC50 for CC(C)C[C@@H]1NC(=O)[C@H](C(C)C)OC(=O)C[C@H](O)[C@@H](C(C)C)NC(=O)[C@@H](NC(=O)[C@@H](CC(C)C)N(C)C(=O)[C@@H]2CCCN2C(=O)[C@H](C)O)[C@@H](C)OC(=O)[C@H](Cc2ccccc2)N(C)C(=O)[C@@H]2CCCN2C1=O [Phe^5 tamandarin B, [N-MePhe^5]-Tamandarin B] (H-[Lac]P[dNMeL]T[Hexanoyl(3S-OH,4R-NH2,5-Me)][Hiv]LP[NMeF]; ester 4-C) ?
// result 9.88

// query Quick one: CC50 for COc1ccc(C[C@H]2C(=O)O[C@H](C)[C@H](NC(=O)[C@@H](CC(C)C)N(C)C(=O)[C@@H]3CCCN3C(=O)[C@H](C)O)C(=O)N[C@H](C(C)C)[C@@H](O)CC(=O)O[C@@H](C(C)C)C(=O)N[C@@H](CC(C)C)C(=O)N3CCC[C@H]3C(=O)N2C)cc1 [tamandarin B, Tamandarin B, reference compound] (H-[Lac]P[dNMeL]T[Hexanoyl(3S-OH,4R-NH2,5-Me)][Hiv]LP[NMeY](Me); ester 4-C) ?
// result 0.0782

---

Tested on: SK-MEL-28
Assay: SRB colorimetric cell growth inhibition assay, SK-MEL-28
Details: read-out: LC50; SK-MEL-28 cells; cell killing; SRB, 48 hours exposure
Description: This form of assay employs 96 well cell culture microplates of […] diameter (Faircloth, 1988; Mosmann, 1983). Most of the cell lines are obtained from American Type Culture Collection (ATCC) derived from different human cancer types. […] Plates are washed with deionised water and dried. […] Optical densities are read on a automated spectrophotometric plate reader at a single wavelength of 490 nm. The values for mean+/−SD of data from triplicate wells are calculated. […]
Starred links: 1 amine or outer side, 2 acyl side, 3 side chain; linkers in the order of their positions; H or OH if unused. Positions of bridges follow the written chain, without caps; N, C: chain ends. Non-standard residues stand in square brackets, D forms with d. Residues, ends and D or L forms follow the SMILES beside them. Hexanoyl(3S-OH,4R-NH2,5-Me) = CC(C)[C@@H](N[*:1])[C@@H](O)CC(=O)[*:2]; NMeY = CN[C@@H](Cc1ccc(O)cc1)C(=O)O; NMeF = CN[C@@H](Cc1ccccc1)C(=O)O; dNMeL = CN[C@H](CC(C)C)C(=O)O; Hiv = CC(C)[C@H](O)C(=O)O; Lac = C[C@H](O)C(=O)O
property: CC50 (nM)
A number alone suffices; assume nM.

// query Quick one: CC50 for CC(C)C[C@@H]1NC(=O)[C@H](C(C)C)OC(=O)C[C@H](O)[C@@H](C(C)C)NC(=O)[C@@H](NC(=O)[C@@H](CC(C)C)N(C)C(=O)[C@@H]2CCCN2C(=O)[C@H](C)O)[C@@H](C)OC(=O)[C@H](Cc2ccccc2)N(C)C(=O)[C@@H]2CCCN2C1=O [Phe^5 tamandarin B, [N-MePhe^5]-Tamandarin B] (H-[Lac]P[dNMeL]T[Hexanoyl(3S-OH,4R-NH2,5-Me)][Hiv]LP[NMeF]; ester 4-C) ?
// result 205

// query Quick one: CC50 for COc1ccc(C[C@H]2C(=O)O[C@H](C)[C@H](NC(=O)[C@@H](CC(C)C)N(C)C(=O)[C@@H]3CCCN3C(=O)[C@H](C)O)C(=O)N[C@H](C(C)C)[C@@H](O)CC(=O)O[C@@H](C(C)C)C(=O)N[C@@H](CC(C)C)C(=O)N3CCC[C@H]3C(=O)N2C)cc1 [tamandarin B, Tamandarin B, reference compound] (H-[Lac]P[dNMeL]T[Hexanoyl(3S-OH,4R-NH2,5-Me)][Hiv]LP[NMeY](Me); ester 4-C) ?
// result 119

---

System: DU145
Experiment: SRB colorimetric cell growth inhibition assay, DU145
Details: read-out: LC50; DU145 cells; cell killing; SRB, 48 hours exposure
Starred links: 1 amine or outer side, 2 acyl side, 3 side chain; linkers in the order of their positions; H or OH if unused. Positions of bridges follow the written chain, without caps; N, C: chain ends. Non-standard residues stand in square brackets, D forms with d. Residues, ends and D or L forms follow the SMILES beside them. Hexanoyl(3S-OH,4R-NH2,5-Me) = CC(C)[C@@H](N[*:1])[C@@H](O)CC(=O)[*:2]; NMeY = CN[C@@H](Cc1ccc(O)cc1)C(=O)O; NMeF = CN[C@@H](Cc1ccccc1)C(=O)O; dNMeL = CN[C@H](CC(C)C)C(=O)O; Hiv = CC(C)[C@H](O)C(=O)O; Lac = C[C@H](O)C(=O)O
property: CC50 (nM)
A number alone suffices; assume nM.

// query Quick one: CC50 for CC(C)C[C@@H]1NC(=O)[C@H](C(C)C)OC(=O)C[C@H](O)[C@@H](C(C)C)NC(=O)[C@@H](NC(=O)[C@@H](CC(C)C)N(C)C(=O)[C@@H]2CCCN2C(=O)[C@H](C)O)[C@@H](C)OC(=O)[C@H](Cc2ccccc2)N(C)C(=O)[C@@H]2CCCN2C1=O [Phe^5 tamandarin B, [N-MePhe^5]-Tamandarin B] (H-[Lac]P[dNMeL]T[Hexanoyl(3S-OH,4R-NH2,5-Me)][Hiv]LP[NMeF]; ester 4-C) ?
// result 268

// query Quick one: CC50 for COc1ccc(C[C@H]2C(=O)O[C@H](C)[C@H](NC(=O)[C@@H](CC(C)C)N(C)C(=O)[C@@H]3CCCN3C(=O)[C@H](C)O)C(=O)N[C@H](C(C)C)[C@@H](O)CC(=O)O[C@@H](C(C)C)C(=O)N[C@@H](CC(C)C)C(=O)N3CCC[C@H]3C(=O)N2C)cc1 [tamandarin B, Tamandarin B, reference compound] (H-[Lac]P[dNMeL]T[Hexanoyl(3S-OH,4R-NH2,5-Me)][Hiv]LP[NMeY](Me); ester 4-C) ?
// result 79.7
